Reference for the values: patent US8415351B2

TARGET_OR_SYSTEM: HCV polymerase 1B (Δ21 NS5B, BK) (Hepatitis C virus genotype 1b, UniProt P26663)
Construct: 20 to 50 nM Δ21 NS5B
Sequence (P26663 2420-2989, stated change not applied): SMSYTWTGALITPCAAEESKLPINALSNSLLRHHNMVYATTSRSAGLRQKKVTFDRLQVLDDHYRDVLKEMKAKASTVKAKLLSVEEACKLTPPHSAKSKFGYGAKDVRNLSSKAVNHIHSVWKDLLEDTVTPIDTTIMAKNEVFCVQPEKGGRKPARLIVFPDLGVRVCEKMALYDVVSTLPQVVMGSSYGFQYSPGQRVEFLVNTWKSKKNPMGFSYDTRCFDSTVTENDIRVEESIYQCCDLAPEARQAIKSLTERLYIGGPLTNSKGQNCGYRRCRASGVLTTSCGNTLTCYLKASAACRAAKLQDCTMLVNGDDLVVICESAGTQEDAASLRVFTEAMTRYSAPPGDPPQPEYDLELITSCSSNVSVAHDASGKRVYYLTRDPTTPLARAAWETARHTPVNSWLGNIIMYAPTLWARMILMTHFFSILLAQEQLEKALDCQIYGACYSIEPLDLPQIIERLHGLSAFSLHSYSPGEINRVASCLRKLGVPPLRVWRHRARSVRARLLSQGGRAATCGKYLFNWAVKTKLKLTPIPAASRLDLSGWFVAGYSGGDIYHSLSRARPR
ASSAY_METHOD_TEXT: biochemical
// reported IC50 per item

Find the measured IC50 of `COc1c(C#Cc2ccc(NS(C)(=O)=O)cc2F)cc(N2CCC(=O)NC2=O)cc1C(C)(C)C` and report it.
< 0.01 µM

Find the measured IC50 of `COc1c(C(=O)Nc2ccc3c(c2)CC(=O)N3)cc(N2CCC(=O)NC2=O)cc1C(C)(C)C` and report it.
0.1 to 1 µM

Find the measured IC50 of `COc1c(C#Cc2ccc(NS(C)(=O)=O)c(Cl)c2)cc(N2CCC(=O)NC2=O)cc1C(C)(C)C` and report it.
0.01 to 0.1 µM

Find the measured IC50 of `CC(C)(C)c1cc(N2CCC(=O)NC2=O)cc(C(=O)Nc2ccccc2S(C)(=O)=O)c1O` and report it.
0.01 to 0.1 µM

====

// reported pIC50 per item
TARGET_OR_SYSTEM: HCV polymerase 1A (Δ21 NS5B, H77) (Hepatitis C virus genotype 1a)
Construct: 20 to 50 nM Δ21 NS5B
Sequence (P27958 2421-2990, stated change not applied): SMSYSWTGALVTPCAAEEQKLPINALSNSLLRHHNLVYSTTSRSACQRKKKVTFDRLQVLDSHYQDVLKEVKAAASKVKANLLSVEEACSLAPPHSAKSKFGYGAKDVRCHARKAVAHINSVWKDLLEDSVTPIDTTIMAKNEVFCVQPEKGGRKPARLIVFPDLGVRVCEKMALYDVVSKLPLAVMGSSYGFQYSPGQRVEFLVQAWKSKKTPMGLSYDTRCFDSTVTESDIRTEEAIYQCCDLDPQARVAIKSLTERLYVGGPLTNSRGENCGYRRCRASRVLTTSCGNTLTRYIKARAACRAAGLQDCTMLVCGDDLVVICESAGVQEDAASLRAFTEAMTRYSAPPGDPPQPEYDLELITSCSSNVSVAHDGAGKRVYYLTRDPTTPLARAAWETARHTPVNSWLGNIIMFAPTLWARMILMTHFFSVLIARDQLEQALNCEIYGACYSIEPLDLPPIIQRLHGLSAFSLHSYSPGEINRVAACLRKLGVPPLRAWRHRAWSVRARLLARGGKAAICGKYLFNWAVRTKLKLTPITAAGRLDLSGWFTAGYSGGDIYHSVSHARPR
ASSAY_METHOD_TEXT: biochemical
TEST_CONTEXT: read-out: IC50 1a
pIC50: −log10 of the molar value.

{"MOLECULE": "CC(C)(C)c1cc(N2CCC(=O)NC2=O)cc(NC(=O)c2ccc([N+](=O)[O-])cc2)c1O [IA-L4-1.5]", "pIC50": "< 6.00"}
{"MOLECULE": "COc1c(C(=O)N[C@H]2CC[C@H](NS(C)(=O)=O)CC2)cc(N2CCC(=O)NC2=O)cc1C(C)(C)C [IA-L3-1.103]", "pIC50": "6.00 to 7.00"}

Moving on to another molecule below.
Find the measured pIC50 of COc1cc(NS(C)(=O)=O)ccc1/C=C/c1cc(N2CCC(=O)NC2=O)cc(C(C)(C)C)c1OC [IA-L1-1.27] and report it.
> 8.00

====

TARGET_OR_SYSTEM: HCV polymerase 1A (Δ21 NS5B, H77) (Hepatitis C virus genotype 1a)
Construct: 20 to 50 nM Δ21 NS5B
ASSAY_METHOD_TEXT: biochemical
TEST_CONTEXT: IC50 1a
pIC50: −log10 of the molar value.
OBSERVABLE: pIC50

{"COMPOUND": "CC1CCCN(Cc2cc(N3CCC(=O)NC3=O)cc(C(C)(C)C)c2O)C1 (stereo not shown)", "ASSAY_VALUE": "< 6.00"}
{"COMPOUND": "COc1c(-c2ccoc2)cc(-n2ccc(=O)[nH]c2=O)cc1-c1ccc2c(c1)CC=C2CNS(C)(=O)=O", "ASSAY_VALUE": "7.00 to 8.00"}
{"COMPOUND": "CC(C)(C)c1cc(N2CCC(=O)NC2=O)cc(NC(=O)c2ccc(NS(C)(=O)=O)cc2)c1O", "ASSAY_VALUE": "6.00 to 7.00"}
{"COMPOUND": "COc1c(C(=O)Nc2ccc(NS(=O)(=O)c3c(C)noc3C)cc2)cc(N2CCC(=O)NC2=O)cc1C(C)(C)C", "ASSAY_VALUE": "6.00 to 7.00"}

Fill in: pIC50 on HCV polymerase 1A (Δ21 NS5B, H77) (Hepatitis C virus genotype 1a), entry `CC(C)(C)OC(=O)N1CCN(Cc2cc(N3CCC(=O)NC3=O)cc(C(C)(C)C)c2O)CC1`
< 6.00

Fill in: pIC50 on HCV polymerase 1A (Δ21 NS5B, H77) (Hepatitis C virus genotype 1a), entry `CCOC(=O)N(c1ccc(NC(=O)c2cc(N3CCC(=O)NC3=O)cc(C(C)(C)C)c2OC)cc1)S(C)(=O)=O`
< 6.00

Fill in: pIC50 on HCV polymerase 1A (Δ21 NS5B, H77) (Hepatitis C virus genotype 1a), entry CC(C)(C)c1cc(N2CCC(=O)NC2=O)cc(CN2CCC(NS(C)(=O)=O)C2)c1O (stereo not shown)
< 6.00
